protocol text: Cytotoxic activity on hepatoblastoma cell line HepG2
Assay type: cell-based, human
condition summary: human, HepG2 cells
measured property: LC50 (concentration killing 50% of cells) (µM)

1) N#Cc1ccc(N2C(=O)[C@](Cc3ccc(F)cc3)(c3ccccc3)NC2=S)cc1C(F)(F)F [(S)-37]; 17.7

Source: patent US8859599B2
